target: T1, human PSMA expressed with an N-terminal hexahistidine tag (6h.hPSMA, R&D) (human, UniProt Q04609 44-750); assay: SPR Biacore T-200, 37 C, antibody-capture (anti-human Fc), 6h.hPSMA as analyte
T1 construct: Bought soluble protein; also called soluble human PSMA; human PSMA protein
T1 sequence (Q04609 other isoform, or with tags, fused parts or gaps limits assumed): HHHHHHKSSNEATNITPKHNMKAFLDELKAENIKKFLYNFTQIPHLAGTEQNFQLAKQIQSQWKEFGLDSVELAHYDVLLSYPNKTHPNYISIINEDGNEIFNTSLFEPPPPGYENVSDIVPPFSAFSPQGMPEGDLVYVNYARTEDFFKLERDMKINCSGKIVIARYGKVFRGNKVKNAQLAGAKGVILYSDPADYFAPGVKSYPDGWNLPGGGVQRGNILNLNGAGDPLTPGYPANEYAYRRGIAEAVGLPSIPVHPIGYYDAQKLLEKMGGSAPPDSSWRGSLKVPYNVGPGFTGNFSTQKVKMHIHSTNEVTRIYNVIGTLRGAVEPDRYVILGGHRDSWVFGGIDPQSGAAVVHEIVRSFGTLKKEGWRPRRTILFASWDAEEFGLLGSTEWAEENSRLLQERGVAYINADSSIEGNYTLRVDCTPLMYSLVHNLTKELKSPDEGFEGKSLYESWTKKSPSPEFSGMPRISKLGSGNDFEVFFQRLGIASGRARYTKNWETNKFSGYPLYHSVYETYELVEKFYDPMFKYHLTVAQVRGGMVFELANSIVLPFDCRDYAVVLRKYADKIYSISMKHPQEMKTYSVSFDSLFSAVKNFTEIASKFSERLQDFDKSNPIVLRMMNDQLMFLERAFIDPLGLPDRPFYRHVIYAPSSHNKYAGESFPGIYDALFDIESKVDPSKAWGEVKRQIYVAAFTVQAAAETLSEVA
The class of a record is decided solely by its measured koff; consult group 1: < 0.0005 s⁻¹; group 2: ≥ 0.0005 s⁻¹ and < 0.0008 s⁻¹; group 3: ≥ 0.0008 s⁻¹

Q: Hi there! Could you help me figure out the category for H1H11837P2 (antibody, human IgG1, V domains shown, human IgG1) VH: QVQLVESGGGVVQPGRSLRLSCAASGFTFSSYGMHWVRQAPGKGLEWVTFISYDGNNKYYSDSVKGRFAISRDNSKNTLYLQMNSLRAEDTSVYFCAKDQYYDFLTDFGVFDYWGQGTLVTVSS VL: DIQMTQSPSSLSASVGDSVTITCRASQSINNYLNWYQQKPGKAPKLLIYTASSLLSGVPSRFSGSGSGTDFTLTISGLHPEDFATYFCQQSFSTPPITFGQGTRLDIK please?
Result: group 2

Q: For H1H11797P2 (antibody, human IgG1, V domains shown, human IgG1) VH: QVQLVESGGGVVQPGRSLRLSCAASGFSFSGYGMHWVRQAPGKGLEWVAVTWYDGSNKYYADSVKGRFTISRDNSKNTLYLQMNSLRAEDTAVYYCARDGNWGGPYWYFDLWGRGTLVTVSS VL: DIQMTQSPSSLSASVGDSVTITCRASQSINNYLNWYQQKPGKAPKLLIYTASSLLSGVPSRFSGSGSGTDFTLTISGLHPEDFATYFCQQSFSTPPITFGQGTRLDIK , which koff bin applies?
Result: group 2

Q: Which class holds H1H11792P2 (antibody, human IgG1, V domains shown, human IgG1) VH: QVQLVESGGGVVQPGRSLRLSCAASGFTFSSYGMHWVRQPPGKGLEWVAIMSYDGSNKYYADSVKGRFTISRDNSKNTLYLQMNSLRVEDTAVYYCAKDQYYDFLTFDYTLDYWGQGTLVTVSS VL: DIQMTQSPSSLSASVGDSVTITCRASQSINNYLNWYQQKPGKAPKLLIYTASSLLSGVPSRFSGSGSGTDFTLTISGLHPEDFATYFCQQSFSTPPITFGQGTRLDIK ?
Result: group 1

Q: Please indicate the class for H1H11838P2 (antibody, human IgG1, V domains shown, human IgG1) VH: QVQLVESGGGVVQPGRSLRLSCAASGFTFSSYGMHWVRQAPGKGLEWVAFMSYDGSNKFYSDSVKGRFTISRDNSRKMLFLQMNNLRAEDTAVYYCARDQYYDFLTDHGVFDYWGQGTLVTVSS VL: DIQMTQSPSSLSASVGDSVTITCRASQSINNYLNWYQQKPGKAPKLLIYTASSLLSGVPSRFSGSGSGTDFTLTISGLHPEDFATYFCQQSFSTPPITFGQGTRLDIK based on its koff.
Result: group 1

Q: Sort H1H11803P2 (antibody, human IgG1, V domains shown, human IgG1) VH: QVQLVESGGGVVQPGRSLRLSCAASGFTFSSYGMHWVRQAPGKGLEWVAVIWYDGNNKYYADSVKGRFTISRDNSKKTLYLQMTSLRAEDTAVYYCARDQYYDILTADNTLDYWGQGTLVTVSS VL: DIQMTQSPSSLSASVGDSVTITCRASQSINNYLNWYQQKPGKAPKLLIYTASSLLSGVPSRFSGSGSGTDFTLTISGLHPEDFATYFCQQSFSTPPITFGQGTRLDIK into one of the categories.
Result: group 2

Q: Could you tell me which band H1H11805P2 (antibody, human IgG1, V domains shown, human IgG1) VH: EVQLVESGGGLVQPGGSLRLSCVVSGFTFNNYWMSWVRQAPGKGLEWVANIKKDGSEKYYVDSVKGRFTISRDNAKNSLYLQMNSLRAEDTAVYYCARDIMATIIDWGQGTLVTVSS VL: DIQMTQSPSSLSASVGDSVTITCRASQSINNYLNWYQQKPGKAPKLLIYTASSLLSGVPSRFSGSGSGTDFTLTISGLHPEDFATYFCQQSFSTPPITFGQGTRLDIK belongs to?
Result: group 3

Q: Returns: class label. Input: H1H11835P2 (antibody, human IgG1, V domains shown, human IgG1) VH: EVQLVESGGGLVQSGGSLRLSCEASGFTFSNYWMTWIRQGPGKGLEWVANIKPDGTENYYVDSVKGRFTISRDNARNSLYLQMTSLKAEDTAVYYCGRMIQFVINIWGQGTLVTVSS VL: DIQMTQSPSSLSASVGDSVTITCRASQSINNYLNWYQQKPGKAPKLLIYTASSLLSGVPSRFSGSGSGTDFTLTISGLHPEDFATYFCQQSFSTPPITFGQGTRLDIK
Result: group 3

Q: Assign a bin to H1H11836P2 (antibody, human IgG1, V domains shown, human IgG1) VH: QVQLVESGGGVVQPGRSLRLSCAASGFTFRSYGMHWVRQAPGKGLEWVAFISYDESNKHQADSVKGRFTISRDNSKNTLYLQMNSLRAEDTAVYFCAKDQYYDFLTAYDTLDYWGQGTLVTVSS VL: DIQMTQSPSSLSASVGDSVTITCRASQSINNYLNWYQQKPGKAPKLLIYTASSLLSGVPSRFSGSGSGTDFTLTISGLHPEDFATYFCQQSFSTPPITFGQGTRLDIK
Result: group 1
